In this section we review reported IC50 values for a set of compounds.
Target: androgen receptor (Homo sapiens, UniProt P10275)
Sequence (P10275 1-920 Q868H): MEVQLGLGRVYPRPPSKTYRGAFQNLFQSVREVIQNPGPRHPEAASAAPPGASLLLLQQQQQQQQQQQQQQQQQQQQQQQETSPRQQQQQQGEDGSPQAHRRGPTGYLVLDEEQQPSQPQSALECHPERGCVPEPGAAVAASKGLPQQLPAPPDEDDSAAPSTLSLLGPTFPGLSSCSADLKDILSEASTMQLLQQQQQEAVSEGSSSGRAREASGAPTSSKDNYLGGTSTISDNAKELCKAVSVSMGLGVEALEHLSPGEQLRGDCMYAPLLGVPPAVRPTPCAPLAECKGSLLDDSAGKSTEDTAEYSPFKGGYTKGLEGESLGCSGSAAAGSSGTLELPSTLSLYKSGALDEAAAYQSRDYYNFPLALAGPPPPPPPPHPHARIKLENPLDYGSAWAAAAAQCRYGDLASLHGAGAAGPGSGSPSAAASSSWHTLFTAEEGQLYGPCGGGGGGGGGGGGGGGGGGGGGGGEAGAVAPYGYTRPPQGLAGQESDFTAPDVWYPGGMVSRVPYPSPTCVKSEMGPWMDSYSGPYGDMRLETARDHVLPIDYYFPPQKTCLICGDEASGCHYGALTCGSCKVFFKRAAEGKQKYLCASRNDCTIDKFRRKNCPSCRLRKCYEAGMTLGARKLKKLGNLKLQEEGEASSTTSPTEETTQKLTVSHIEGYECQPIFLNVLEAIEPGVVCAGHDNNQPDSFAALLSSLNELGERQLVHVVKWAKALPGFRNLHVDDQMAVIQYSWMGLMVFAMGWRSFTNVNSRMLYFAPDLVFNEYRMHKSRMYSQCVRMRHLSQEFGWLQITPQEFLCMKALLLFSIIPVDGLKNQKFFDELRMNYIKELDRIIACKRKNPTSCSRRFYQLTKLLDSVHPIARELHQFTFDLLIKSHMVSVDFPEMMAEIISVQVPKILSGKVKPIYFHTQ
Assay: AR antagonist cell assay, MDA-MB453-MMTV clone 54-19 luciferase reporter
Type: cell-based
Conditions: MDA-MB453-MMTV clone 54-19, 100 pM DHT, 17 hr; mean of multiple tests; read-out: AR Cell IC50
Attribute Measured: IC50 (µM)

- C[C@H](O)CC[C@H](C)Oc1ccc(C#N)c(C(F)(F)F)c1 [Example 23]: 0.132
- CCCC(O)C(CC)COc1ccc(C#N)c(C(F)(F)F)c1 (stereo not shown) [Example 14]: 0.794
- C[C@H](C[C@@H](C)O)Oc1ccc(C#N)c(C(F)(F)F)c1 [Example 17]: 0.807
- CCCCC(COc1ccc(C#N)c(C(F)(F)F)c1)C(C)O (stereo not shown) [Example 15]: 0.124
- CC(C)(O)CCOc1ccc(C#N)c(C(F)(F)F)c1 [Example 12]: 0.269
- N#Cc1ccc(OCCCCO)cc1C(F)(F)F [Example 18]: 0.398
- CC(O)CCC(C)Oc1ccc(C#N)c(Cl)c1 (stereo not shown) [Example 28]: 0.263
- C=CCCCCC(O)COc1ccc(C#N)c(C(F)(F)F)c1 (stereo not shown) [Example 6]: 0.662
- CC(O)CCCCOc1ccc(C#N)c(C(F)(F)F)c1 (stereo not shown) [Example 25]: 0.838
- CCCC(O)CCCOc1ccc(C#N)c(C(F)(F)F)c1 (stereo not shown) [Example 20]: 0.498
